- System: SK-OV-3
- METHOD_DESCRIPTION: NCI tumour cell line growth inhibition, 48 h
Activity calls are given as the source filed them. No stated cut-off is given here; in the data, active = GI50 up to about 1.1 µM and inactive = higher.
RECORDED_ENDPOINT: GI50

{"COMPOUND": "CCOC(=O)CNC(=O)OCc1ccccc1", "GI50": "> 100 µM (inactive)"}
{"COMPOUND": "CC(=O)/N=C1\\N/C(=C\\c2ccc(Cl)cc2)C(=O)N1/C=C1\\C(=O)Oc2ccccc2C1=O", "GI50": "> 100 µM (inactive)"}
{"COMPOUND": "NS(=O)(=O)c1nnc(NS(=O)(=O)c2ccc(Cl)cc2)s1", "GI50": "> 100 µM (inactive)"}
{"COMPOUND": "COC(=O)C(/C(=N/NC(N)=O)C(=O)Nc1ccc(C)cc1)c1nc2ccc([N+](=O)[O-])cc2nc1O (stereo not drawn)", "GI50": "> 100 µM (inactive)"}
{"COMPOUND": "Cc1ccc2[nH]c3c(C)c4ccncc4c(C)c3c2c1", "GI50": "2.23 µM (inactive)"}

Prompt: Reported GI50 for `COc1cc2cnc3c4ccccc4ccc3c2cc1OC` : what is it?
Completion: > 100 µM (inactive)

Prompt: What value of GI50 has been reported for the following compound? C[C@@H](CC(O)C(O)C(C)(C)O)C1CCC23CC12CCC1[C@@]2(C)CCC(=O)C(C)(C)C2CC(OC2OC(CO)C(O)C(O)C2O)[C@]13C (stereo partly drawn)
Completion: > 10 µM (inactive)

Prompt: Would you kindly share the measured GI50 for `COc1cccc2c1CCc1c(-c3ccc(F)cc3)cc(-c3ccc4ccccc4n3)nc1-2` ?
Completion: > 100 µM (inactive)

Prompt: State the recorded GI50 for this entry: COC(=O)CC1N/C(=N\C#N)N(CCc2c[nH]c3ccccc23)C1=O (stereo not drawn)
Completion: > 100 µM (inactive)

Prompt: Which GI50 is listed for CC[C@H]1CNC(=O)CC1CC(=O)OC (stereo partly drawn) ?
Completion: > 100 µM (inactive)

Prompt: Need GI50, item `O=C1Nc2cc([N+](=O)[O-])c(Br)cc2C1=O`
Completion: 17.5 µM (inactive)

Prompt: Given the compound `NCCCNC(=O)c1csc(NC(=O)c2csc(NC(=O)CCCN)n2)n1` , what is its reported GI50?
Completion: > 100 µM (inactive)

Prompt: Find the recorded GI50 belonging to `COc1ccc(-c2cc(-c3ccccc3)nc(/N=C\c3ccccc3)n2)c(O)c1` and report it.
Completion: 7.52 µM (inactive)
